testedSystem: T1, bacterially produced human IL-6 (human, UniProt P05231 30-212)
T1 construct: also called bactIL-6; prokaryotic IL-6
assayComment: SPR; purified Fab over biotinylated IL-6 on streptavidin chip
measurementType: kon (M⁻¹ s⁻¹)
Field format: number, assumed M⁻¹ s⁻¹, no unit text.

The cases that follow already have their kon on record.
binder: Fab 24D10 (Fab, V domains shown, Fab; also called pur24d10; 28f12(24D10)) VH: QLQVVESGGGLVQPGGSLRLSCAASGFTFSSYAMSWVRQAPGKGPEWVSRISSGGGSTSYADSVKGRFTISRDNAKNTLYLQMNSLKPEDTAVYYCANRAGWGMGDYWGQGTQVTVSS VL: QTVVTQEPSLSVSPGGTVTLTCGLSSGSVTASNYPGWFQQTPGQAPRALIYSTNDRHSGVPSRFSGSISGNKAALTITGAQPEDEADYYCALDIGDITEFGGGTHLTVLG
measurementType: kon
reportedMeasurement: 62700

binder: Fab 20A4 (Fab, V domains shown, Fab) VH: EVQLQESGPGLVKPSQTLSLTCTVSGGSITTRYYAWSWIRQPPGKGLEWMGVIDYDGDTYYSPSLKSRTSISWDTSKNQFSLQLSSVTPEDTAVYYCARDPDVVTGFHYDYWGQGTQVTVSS VL: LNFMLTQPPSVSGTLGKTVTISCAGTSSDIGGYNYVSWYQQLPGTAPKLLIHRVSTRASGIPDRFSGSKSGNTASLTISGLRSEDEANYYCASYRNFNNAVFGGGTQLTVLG
measurementType: kon
reportedMeasurement: 288000

Please turn your attention to the following entry.
*Q* # input binder: Fab 18C11 (Fab, V domains shown, Fab) VH: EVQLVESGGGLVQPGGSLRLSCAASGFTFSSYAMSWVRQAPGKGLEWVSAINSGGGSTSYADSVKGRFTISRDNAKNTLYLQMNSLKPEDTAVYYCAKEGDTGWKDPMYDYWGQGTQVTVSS VL: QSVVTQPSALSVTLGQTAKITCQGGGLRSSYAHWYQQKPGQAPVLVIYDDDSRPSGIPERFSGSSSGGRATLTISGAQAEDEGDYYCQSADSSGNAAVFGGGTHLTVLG ; wanted: its kon
*A* 55200
